The entries below come with measured IC50 values attached.
Biological target: KRas G12C (Homo sapiens, UniProt P01116, G12C)
Sequence (P01116 1-169 isoform P01116-2 G12C): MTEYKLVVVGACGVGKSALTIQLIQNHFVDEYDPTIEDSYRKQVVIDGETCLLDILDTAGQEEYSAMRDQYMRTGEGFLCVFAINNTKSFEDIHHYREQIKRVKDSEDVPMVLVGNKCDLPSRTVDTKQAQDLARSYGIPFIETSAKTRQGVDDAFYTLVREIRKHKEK
Format: binding
Conditions: TR-FRET displacement, read-out: Binding to KRas (IC50 nM) G12C

# compound, unit spec, qualifier operator, IC50
rows = [
    ("Oc1cc(Cl)c(C2CC2)c(N2CCc3c(nc(OCC45CCCN4CCC5)nc3N3CCC[C@]4(C3)C[C@H](O)C4)C2)c1 [Example 440]", "nM", "=", 30),
    ("CCc1cccc2cccc(N3CCc4c(nc(OCC5(CN(C)C)CC5)nc4N4CCCC(n5ccc(C)n5)C4)C3)c12 (stereo not shown) [Example 535]", "nM", "=", 1830),
    ("CCc1cccc2cccc(N3CCc4c(nc(OCC5(CN(C)C)CC5)nc4N4CCCC(c5nnc[nH]5)C4)C3)c12 (stereo not shown) [Example 514]", "nM", "=", 286),
    ("CCc1cccc2cccc(N3CCc4c(nc(OCC5(CN(C)C)CC5)nc4NCc4ncc(C#N)c(N)n4)C3)c12 [Example 706]", "nM", "=", 1680),
    ("O=C1NCC2(CCCN(c3nc(OCC45CCCN4CCC5)nc4c3CCN(c3cc(O)cc(Cl)c3C3CC3)C4)C2)N1 (stereo not shown) [Example 442]", "nM", "<", 2),
    ("Cc1cc2[nH]ncc2c(N2CCc3c(nc(OCC45CCCN4CCC5)nc3N3CCCC4(CNS(=O)(=O)N4)C3)C2)c1C (stereo not shown) [Example 452]", "nM", "=", 8),
    ("CCc1cccc2cccc(N3CCc4c(nc(OCC5(CN(C)C)CC5)nc4N4CC(CO)OC(C(F)(F)F)C4)C3)c12 (stereo not shown) [Example 540]", "nM", "=", 1840),
]

====

Below: a set of entries, each annotated with reported IC50.
Biological target: KRas G12R (Homo sapiens, UniProt P01116, G12R)
Sequence (P01116 1-169 isoform P01116-2 G12R): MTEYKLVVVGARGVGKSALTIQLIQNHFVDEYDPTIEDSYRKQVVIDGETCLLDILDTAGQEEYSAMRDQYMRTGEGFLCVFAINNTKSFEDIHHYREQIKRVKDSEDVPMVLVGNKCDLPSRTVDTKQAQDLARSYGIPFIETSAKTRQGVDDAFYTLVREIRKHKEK
Test: biochemical
Conditions: Binding to KRas (IC50 nM) G12R, TR-FRET displacement, KRas G12R
experimental readout: IC50 (nM)

# molecule, qualifier operator, experimental result
measured = [
    ("Cc1cc2[nH]ncc2c(N2CCc3c(nc(OCC45CCCN4CCC5)nc3N3CCCn4nc(C(=O)N(C)C)cc4C3)C2)c1C [Example 451]", "=", 62),
    ("CCc1c(F)ccc2cc(O)cc(N3CCc4c(nc(OC[C@@]56CCCN5C[C@H](F)C6)nc4N4CCCn5nc(C(=O)N(C)C6CC6)cc5C4)C3)c12 [Example 383]", "<", 2),
    ("CCNc1cc2n(n1)CCCN(c1nc(OC[C@@]34CCCN3C[C@H](F)C4)nc3c1CCN(c1cc(O)cc4ccc(F)c(CC)c14)C3)C2 [Example 412]", "<", 2),
    ("Oc1cc(Cl)c(C2CC2)c(N2CCc3c(nc(OCC45CCCN4CCC5)nc3N3CCC[C@]4(C3)C[C@H](O)C4)C2)c1 [Example 440]", "=", 36),
    ("Oc1cc(N2CCc3c(nc(OC[C@@]45CCCN4C[C@H](F)C5)nc3N3CCCC4(CCSC4)C3)C2)c2c(Cl)c(F)ccc2c1 (stereo partly drawn) [Example 464]", "=", 12),
    ("CCc1c(F)ccc2cc(O)cc(N3CCc4c(nc(OC[C@@]56CCCN5C[C@H](F)C6)nc4N4CCCn5nc(C(=O)N6CC7CC(C6)N7)cc5C4)C3)c12 [Example 283]", "<", 2),
]

The origin of these recorded values is patent US20250368649A1.
